- TARGET_SYSTEM: HBV polymerase (Hepatitis B virus genotype A2 subtype adw2)
- Construct: made in house; host or cells: E. coli
- Sequence (P03159 whole entry): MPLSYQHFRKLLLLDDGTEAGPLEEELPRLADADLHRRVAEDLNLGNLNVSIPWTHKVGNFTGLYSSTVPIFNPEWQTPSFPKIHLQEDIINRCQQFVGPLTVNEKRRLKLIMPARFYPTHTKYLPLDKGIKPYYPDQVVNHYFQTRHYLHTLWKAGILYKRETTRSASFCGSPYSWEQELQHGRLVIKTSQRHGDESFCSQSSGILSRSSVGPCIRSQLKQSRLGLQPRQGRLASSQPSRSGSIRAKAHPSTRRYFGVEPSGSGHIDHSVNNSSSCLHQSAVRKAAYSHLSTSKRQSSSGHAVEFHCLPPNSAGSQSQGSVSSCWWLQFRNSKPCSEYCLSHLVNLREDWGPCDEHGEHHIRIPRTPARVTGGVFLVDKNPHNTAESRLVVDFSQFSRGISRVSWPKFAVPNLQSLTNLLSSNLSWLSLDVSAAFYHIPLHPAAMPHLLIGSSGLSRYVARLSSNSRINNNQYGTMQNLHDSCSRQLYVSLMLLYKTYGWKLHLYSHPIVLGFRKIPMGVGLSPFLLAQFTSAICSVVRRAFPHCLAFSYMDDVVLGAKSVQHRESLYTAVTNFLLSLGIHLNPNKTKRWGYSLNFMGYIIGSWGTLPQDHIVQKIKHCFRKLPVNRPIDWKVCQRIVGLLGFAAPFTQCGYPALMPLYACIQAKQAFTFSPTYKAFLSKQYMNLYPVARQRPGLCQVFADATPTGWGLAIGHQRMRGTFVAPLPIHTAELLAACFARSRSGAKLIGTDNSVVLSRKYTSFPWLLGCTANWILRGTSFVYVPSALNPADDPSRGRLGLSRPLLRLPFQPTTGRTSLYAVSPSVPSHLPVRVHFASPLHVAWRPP
- MEASUREMENT_DESCRIPTION: In vitro reverse transcription activity of HBV polymerase (ELISA-type, DIG/biotin nucleotides)
- Format: biochemical
- MEASUREMENT_PARAMETERS: 0.01 μg/ml test compound; read-out: Inhibition activity on HBV-RT (%)

[
  {
    "MOL_SMILES": "C[C@@H](CCO)Nc1ccc([N+](=O)[O-])c(Nc2ccc3[nH]ncc3c2)n1",
    "TARGET_SYSTEM": "HBV polymerase (Hepatitis B virus genotype A2 subtype adw2)",
    "VALUE_UNIT": "%",
    "inhibition at 0.01 µg/mL": 38
  },
  {
    "MOL_SMILES": "O=[N+]([O-])c1ccc(NCc2ccncc2)nc1Nc1ccc2[nH]ncc2c1",
    "TARGET_SYSTEM": "HBV polymerase (Hepatitis B virus genotype A2 subtype adw2)",
    "VALUE_UNIT": "%",
    "inhibition at 0.01 µg/mL": 45
  },
  {
    "MOL_SMILES": "O=[N+]([O-])c1ccc(N2CCNCC2)nc1Nc1ccc2cn[nH]c2c1",
    "TARGET_SYSTEM": "HBV polymerase (Hepatitis B virus genotype A2 subtype adw2)",
    "VALUE_UNIT": "%",
    "inhibition at 0.01 µg/mL": 20
  },
  {
    "MOL_SMILES": "CN1CCN(c2ccc([N+](=O)[O-])c(Nc3ccc4cn[nH]c4c3)n2)CC1",
    "TARGET_SYSTEM": "HBV polymerase (Hepatitis B virus genotype A2 subtype adw2)",
    "VALUE_UNIT": "%",
    "inhibition at 0.01 µg/mL": 18
  },
  {
    "MOL_SMILES": "COc1ccc([N+](=O)[O-])c(Nc2ccc3[nH]ncc3c2)n1",
    "TARGET_SYSTEM": "HBV polymerase (Hepatitis B virus genotype A2 subtype adw2)",
    "VALUE_UNIT": "%",
    "inhibition at 0.01 µg/mL": 30
  },
  {
    "MOL_SMILES": "O=[N+]([O-])c1ccc(NCc2cccnc2)nc1Nc1ccc2cn[nH]c2c1",
    "TARGET_SYSTEM": "HBV polymerase (Hepatitis B virus genotype A2 subtype adw2)",
    "VALUE_UNIT": "%",
    "inhibition at 0.01 µg/mL": 21
  },
  {
    "MOL_SMILES": "CN1CCN(Nc2ccc([N+](=O)[O-])c(Nc3ccc4[nH]ncc4c3)n2)CC1",
    "TARGET_SYSTEM": "HBV polymerase (Hepatitis B virus genotype A2 subtype adw2)",
    "VALUE_UNIT": "%",
    "inhibition at 0.01 µg/mL": 41
  },
  {
    "MOL_SMILES": "CN(C)CCNc1ccc([N+](=O)[O-])c(Nc2ccc3cn[nH]c3c2)n1",
    "TARGET_SYSTEM": "HBV polymerase (Hepatitis B virus genotype A2 subtype adw2)",
    "VALUE_UNIT": "%",
    "inhibition at 0.01 µg/mL": 38
  },
  {
    "MOL_SMILES": "O=[N+]([O-])c1ccc(NCc2cccnc2)nc1Nc1ccc2[nH]ncc2c1",
    "TARGET_SYSTEM": "HBV polymerase (Hepatitis B virus genotype A2 subtype adw2)",
    "VALUE_UNIT": "%",
    "inhibition at 0.01 µg/mL": 42
  }
]

====

- TARGET_SYSTEM: HBV polymerase (Hepatitis B virus genotype A2 subtype adw2)
- Construct: made in house; host or cells: E. coli
- MEASUREMENT_DESCRIPTION: In vitro reverse transcription activity of HBV polymerase (ELISA-type, DIG/biotin nucleotides)
- Type: biochemical
- MEASUREMENT_PARAMETERS: 0.1 μg/ml test compound; read-out: Inhibition activity on HBV-RT (%)
Items are presented alongside their recorded inhibition at 0.1 µg/mL.
TEST_READOUT: inhibition at 0.1 µg/mL (%)

[
  {
    "MOL_SMILES": "CN1CCN(Nc2ccc([N+](=O)[O-])c(Nc3ccc4cn[nH]c4c3)n2)CC1",
    "TARGET_SYSTEM": "HBV polymerase (Hepatitis B virus genotype A2 subtype adw2)",
    "MEAS_VALUE": 43
  },
  {
    "MOL_SMILES": "CN1CCN(Nc2ccc([N+](=O)[O-])c(Nc3ccc4[nH]ncc4c3)n2)CC1",
    "TARGET_SYSTEM": "HBV polymerase (Hepatitis B virus genotype A2 subtype adw2)",
    "MEAS_VALUE": 52
  },
  {
    "MOL_SMILES": "O=[N+]([O-])c1ccc(NC2CC2)nc1Nc1ccc2[nH]ncc2c1",
    "TARGET_SYSTEM": "HBV polymerase (Hepatitis B virus genotype A2 subtype adw2)",
    "MEAS_VALUE": 52
  }
]

====

- System: HBV
- MEASUREMENT_DESCRIPTION: Proliferation of HBV in HBV producing cell line HepG 2.2.15 (competitive PCR of culture supernatant)
- Format: cell-based, Hepatitis B virus
- MEASUREMENT_PARAMETERS: Hepatitis B virus, HepG2.2.15, 168 h; 0.1 μg/ml, HepG 2.2.15, one week; read-out: Inhibitory effect on the HBV proliferation: Inhibition activity on HBV-RT (%)
Items are presented alongside their recorded inhibition at 0.1 µg/mL.

[
  {
    "MOLECULE": "O=[N+]([O-])c1ccc(NCc2ccncc2)nc1Nc1ccc2[nH]ncc2c1",
    "inhibition at 0.1 µg/mL [%]": 50
  },
  {
    "MOLECULE": "O=[N+]([O-])c1ccc(NCc2cccnc2)nc1Nc1ccc2[nH]ncc2c1",
    "inhibition at 0.1 µg/mL [%]": 51
  },
  {
    "MOLECULE": "COc1ccc([N+](=O)[O-])c(Nc2ccc3[nH]ncc3c2)n1",
    "inhibition at 0.1 µg/mL [%]": 45
  },
  {
    "MOLECULE": "O=[N+]([O-])c1ccc(NC(CO)CO)nc1Nc1ccc2[nH]ncc2c1",
    "inhibition at 0.1 µg/mL [%]": 41
  },
  {
    "MOLECULE": "COc1ccc([N+](=O)[O-])c(Nc2ccc3cn[nH]c3c2)n1",
    "inhibition at 0.1 µg/mL [%]": 40
  },
  {
    "MOLECULE": "Nc1ccn([C@@H]2CS[C@H](CO)O2)c(=O)n1 [Example 3TC, lamivudine, reference compound]",
    "inhibition at 0.1 µg/mL [%]": 80
  },
  {
    "MOLECULE": "O=[N+]([O-])c1ccc(NC2CC2)nc1Nc1ccc2[nH]ncc2c1",
    "inhibition at 0.1 µg/mL [%]": 46
  }
]

====

Items are presented alongside their recorded inhibition at 0.01 µg/mL.
- TARGET_SYSTEM: HBV polymerase (Hepatitis B virus genotype A2 subtype adw2)
- Construct: made in house; host or cells: E. coli
- MEASUREMENT_DESCRIPTION: In vitro reverse transcription activity of HBV polymerase (ELISA-type, DIG/biotin nucleotides)
- Assay type: biochemical
- MEASUREMENT_PARAMETERS: 0.01 μg/ml test compound; read-out: Inhibition activity on HBV-RT (%)

[
  {
    "COMPOUND": "O=[N+]([O-])c1ccc(N2CCNCC2)nc1Nc1ccc2[nH]ncc2c1 [Example 23]",
    "inhibition at 0.01 µg/mL (%)": 51
  },
  {
    "COMPOUND": "CN1CCN(Nc2ccc([N+](=O)[O-])c(Nc3ccc4cn[nH]c4c3)n2)CC1 [Example 18]",
    "inhibition at 0.01 µg/mL (%)": 25
  },
  {
    "COMPOUND": "O=[N+]([O-])c1ccc(NC2CC2)nc1Nc1ccc2[nH]ncc2c1 [Example 8]",
    "inhibition at 0.01 µg/mL (%)": 38
  }
]

Attribution: patent US6743795B1
